B1: LPCAT4 (parent)
chain: HDPLYGKLFSTYLRPPHTSRGTSQ

- Variants of: B1
- assay_details: protein stability index of a GFP-peptide fusion (GPS, HEK-293T) (PSI 1-6); higher = more stable;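 note: lentivirally expressed fusions sorted by FACS into six bins by GFP to DsRed ratio, PSI derived from sequencing read proportions per bin multiplied by bin number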
- condition_set: c terminus: a fixed tail appended
# protein stability index per entry
observable: protein stability index

construct_sequence: HDWLYGKLFSTYLRPPHTSRGTSQ [P3W]
quantitative_result: 2.03

construct_sequence: HDPLYGKLFSTHLRPPHTSRGTSQ [Y12H]
quantitative_result: 3.31

construct_sequence: HDPLYCKLFSTYLRPPHTSRGTSQ [G6C]
quantitative_result: 2.17

construct_sequence: HDPLYGKLFSTYLRPPHTFRGTSQ [S19F]
quantitative_result: 2.07

construct_sequence: HDPLYGKLFSTYLYPPHTSRGTSQ [R14Y]
quantitative_result: 2.81

construct_sequence: HDPLYGKFFSTYLRPPHTSRGTSQ [L8F]
quantitative_result: 2.15

construct_sequence: HDPLYGKLFSTYLRPPHTSRGYSQ [T22Y]
quantitative_result: 2.13

construct_sequence: HDPLYGALFSTYLRPPHTSRGTSQ [K7A]
quantitative_result: 2.55

construct_sequence: HDPLYGKLFSTYLRPSHTSRGTSQ [P16S]
quantitative_result: 2.67

construct_sequence: HDPLYGKLFSTCLRPPHTSRGTSQ [Y12C]
quantitative_result: 3.01

construct_sequence: HDPLYGKLFSTYLRPWHTSRGTSQ [P16W]
quantitative_result: 2.42
